Below: a set of entries, each annotated with reported pIC50.
# Test system: thapsigargin-induced IFN-g production in human whole blood
# Assay type: cell-based
# Condition Set: read-out: WB/IFNg (IC50)
Ends that are not written are not given here.
Formally, pIC50 is defined as -log10 of the concentration c, with c in mol/L.

In one line, give reported pIC50 of the entry E16K, K20D, T36Y (GVIINVKCKISRQCLKPCKDAGMRFGKCMNGKCHCYPK; Definition of Artificial Sequence: Synthetic peptide) .
9.03

Give the reported value of pIC50 for this record: des1-7, E16K, K20D, des36-38 (CKISRQCLKPCKDAGMRFGKCMNGKCHC-NH2; ends and bridges not checked)
8.08

Provide only the value of recorded pIC50 for GGGGS-Osk1 (GGGGSGVIINVKCKISRQCLEPCKKAGMRFGKCMNGKCHCTPK)
8.66

Report measured pIC50; entry is E16K, K20D (GVIINVKCKISRQCLKPCKDAGMRFGKCMNGKCHCTPK; Definition of Artificial Sequence: Synthetic peptide)
8.88

Indicate its recorded pIC50; the substance in question is E16K, K20D, des36-38 (GVIINVKCKISRQCLKPCKDAGMRFGKCMNGKCHC)
8.16

----------
# System: thapsigargin-induced IFN-g production in human whole blood
# Type: cell-based
# Condition Set: read-out: WB/IFNg (IC50)
Experimental Endpoint: IC50 (nM)
Numbers only; they are read as nM.

Worked set:
>>> readout_value("R12A, E16K, K20D (GVIINVKCKISAQCLKPCKDAGMRFGKCMNGKCHCTPK)")
0.092
>>> readout_value("des1, V2G, R12A, E16K, K19R, K20D, H34A (GIINVKCKISAQCLKPCRDAGMRFGKCMNGKCACTPK)")
2.24

Kindly indicate its recorded IC50. Item: E16K, K20D, H34A (GVIINVKCKISRQCLKPCKDAGMRFGKCMNGKCACTPK)
26.6
